src = patent US10206394B2

Measured pest or weed control at 250 g/ha by item
test system: Lolium perenne (LOLPE); test: Glasshouse assay for herbicidal activity (pre- and post-emergence), percentage phytotoxicity; type: in vivo; details: Lolium perenne, post-emergence, 360 h, POST-emergence, rate 250 g/ha, visual score 15 DAA (100%=total damage, 0%=no damage); read-out: Post-emergence herbicidal activity (percentage phytotoxicity) LOLPE POST

Compound	pest or weed control at 250 g/ha, %
CCc1cc(-n2cc(Cl)cn2)cc(C)c1C1C(=O)CC(CC(=O)NCC2CC2)C1=O (centres unmarked) [Compound B237]	100
Cc1cc(Br)cc(C)c1C1C(=O)CC(CC(=O)NCC2CC2(F)F)C1=O (centres unmarked) [Compound B198]	100
C=CCNC(=O)CC1CC(=O)C(c2c(C)cc(OCC(F)(F)F)cc2C)C1=O (centres unmarked) [Compound B209]	80
C#CC(C)(C)NC(=O)CC1CC(=O)C(c2c(C)cc(-c3ccc(Br)cn3)cc2C)C1=O (centres unmarked) [Compound B297]	100
CNC(=O)CC1CC(=O)C(c2c(C)cc(-c3ncc(F)cn3)cc2C)C1=O (centres unmarked) [Compound B280]	100
CC(C)=CNC(=O)CC1CC(=O)C(c2c(C)cc(-c3ccc(C#N)cn3)cc2C)C1=O (centres unmarked) [Compound B319]	60
CC#Cc1cc(C)c(C2C(=O)CC(CC(=O)NCc3cccc(Cl)c3)C2=O)c(C)c1 (centres unmarked) [Compound B182]	100
CCc1cc(C)cc(C)c1C1C(=O)CC(CC(=O)NC(C)(C)C)C1=O (centres unmarked) [Compound B170]	100
